- protocol_text: Tmax in male Wistar rat at 10 mg/kg, po measured up to 24 hrs by HPLC analysis
- Type: ADME, organism-based
- reported_conditions: in vivo
reported_endpoint: Tmax (h)
Express it in h; write the number only.

Query block: Tell me its Tmax given Clc1ccc(-c2nnc(CN3CCN(C(c4ccccc4)c4ccc(Cl)cc4)CC3)o2)cc1 (stereo unspecified) as the entry.
Result block: 3

----------
- experimental_target: Polyunsaturated fatty acid 5-lipoxygenase (Homo sapiens, UniProt P09917)
- Sequence (P09917 whole entry): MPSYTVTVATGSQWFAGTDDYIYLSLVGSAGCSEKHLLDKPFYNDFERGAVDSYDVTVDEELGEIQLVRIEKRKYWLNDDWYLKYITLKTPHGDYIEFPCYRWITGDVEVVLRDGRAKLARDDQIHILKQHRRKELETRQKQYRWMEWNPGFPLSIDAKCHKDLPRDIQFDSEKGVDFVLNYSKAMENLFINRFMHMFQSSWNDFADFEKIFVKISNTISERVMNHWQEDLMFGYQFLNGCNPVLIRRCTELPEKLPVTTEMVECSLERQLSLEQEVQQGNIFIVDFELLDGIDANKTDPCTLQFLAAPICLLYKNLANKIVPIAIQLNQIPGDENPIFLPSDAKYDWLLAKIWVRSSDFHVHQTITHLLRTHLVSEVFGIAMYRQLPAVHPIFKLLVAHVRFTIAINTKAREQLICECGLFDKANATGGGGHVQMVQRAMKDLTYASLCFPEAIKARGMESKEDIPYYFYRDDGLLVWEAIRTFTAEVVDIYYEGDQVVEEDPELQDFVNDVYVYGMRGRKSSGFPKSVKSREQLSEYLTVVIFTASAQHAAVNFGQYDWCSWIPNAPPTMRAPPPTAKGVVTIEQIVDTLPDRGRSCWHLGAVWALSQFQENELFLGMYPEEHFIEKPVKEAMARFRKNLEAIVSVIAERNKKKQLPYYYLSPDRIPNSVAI
reported_endpoint: IC50 (µM)
Express it in µM; write the number only.

Query block: Tell me its IC50 given COc1ccc(-c2nnc(CN3CCN(C(c4ccccc4)c4ccc(Cl)cc4)CC3)o2)cc1 (centres undefined) as the entry.
Result block: 10.3

Query block: Tell me its IC50 given O=[N+]([O-])c1ccc(-c2nnc(CN3CCN(C(c4ccccc4)c4ccc(Cl)cc4)CC3)o2)cc1 (centres undefined) as the entry.
Result block: 9.16

Query block: Tell me its IC50 given Fc1ccc(-c2nnc(CN3CCN(C(c4ccccc4)c4ccc(Cl)cc4)CC3)o2)cc1 (centres undefined) as the entry.
Result block: 11.6

Query block: Tell me its IC50 given O=[N+]([O-])c1cc(-c2nnc(CN3CCN(C(c4ccccc4)c4ccc(Cl)cc4)CC3)o2)cc([N+](=O)[O-])c1 (centres undefined) as the entry.
Result block: 18

Query block: Tell me its IC50 given O=[N+]([O-])c1ccccc1-c1nnc(CN2CCN(C(c3ccccc3)c3ccc(Cl)cc3)CC2)o1 (centres undefined) as the entry.
Result block: 13.5

Query block: Tell me its IC50 given Oc1cccc(-c2nnc(CN3CCN(C(c4ccccc4)c4ccc(Cl)cc4)CC3)o2)c1 (centres undefined) as the entry.
Result block: 20.3

Query block: Tell me its IC50 given N#Cc1ccc(-c2nnc(CN3CCN(C(c4ccccc4)c4ccc(Cl)cc4)CC3)o2)cc1 (centres undefined) as the entry.
Result block: 13.5

Query block: Tell me its IC50 given Clc1ccc(C(c2ccccc2)N2CCN(Cc3nnc(-c4ccc(Cl)cc4Cl)o3)CC2)cc1 (centres undefined) as the entry.
Result block: 14.4

Query block: Tell me its IC50 given Clc1ccc(-c2nnc(CN3CCN(C(c4ccccc4)c4ccc(Cl)cc4)CC3)o2)cc1 (centres undefined) as the entry.
Result block: 7.87

Recorded values, source ChEMBL document CHEMBL6134766.
